A collection of molecules and their measured % free radicals after 20 min UV irradiation
- assay.explanation: Free radicals generated inside a formulation containing perfume after UV irradiation (ESR, spin marker PCA)
- Format: physicochemical
- experimental.parameters: 0.1% (w/w) perfume in formulation, diluted 1:10 in water, 0.01 mM PCA; UVB 23,5 W/m^2, UVA 180 W/m^2
- Experimental: To measure the free radicals generation inside a formulation after UV irradiation, the concentration of a photostable spin marker added to the tested samples is followed by Electron Spin Resonance (ESR) spectroscopy before and after UV irradiation of the tested samples. […] 0.1% (w/w) of the perfume to be tested (compare to Table 1) was incorporated into the formulation. […] Knowing the concentration of the spin trap PCA within the formulation, the amount of reduced PCA was calculated. […]
Give the figure together with its unit, number first.

Use the examples below as a reference point.
CC(CC=O)CCCC(C)(C)O (stereo not shown) [Hydroxycitronellal]: 3.7%
OCc1ccccc1: 4.4%
COc1cc(C=O)ccc1O [Vanillin, 4-hydroxy-3-methoxybenzaldehyde]: 85.9%
O=C(OCc1ccccc1)c1ccccc1O [Benzyl Salicylate, benzyl 2-hydroxybenzoate]: 17.5%

// % free radicals after 20 min UV irradiation lookup, key: CC(C)=CCCC(C)CCO (stereo not shown)
6.6%

// % free radicals after 20 min UV irradiation lookup, key: O=c1ccc2ccccc2o1
11.5%

// % free radicals after 20 min UV irradiation lookup, key: CC(C)=CCCC(C)=CC=O
16.5%
